# relative viability per entry
# Test system: NCI-H1915
# testName: relative viability (nuclei count vs DMSO), 5 days (fraction); higher = more cells survive
# experimentalParameters: first compound 0.1 µM
Write no unit; give the number alone.

compound | tgt | relative viability
O=c1cc(N2CCOCC2)oc2c(-c3cccc4c3sc3ccccc34)cccc12 + CC(=O)Nc1cccc(-n2c(=O)n(C3CC3)c(=O)c3c(Nc4ccc(I)cc4F)n(C)c(=O)c(C)c32)c1 [Trametinib] (partner 0.02 µM) | NCI-H1915 | 0.299

// query // lookup relative viability for O=c1cc(N2CCOCC2)oc2c(-c3cccc4c3sc3ccccc34)cccc12 + CS(=O)(=O)CCNCc1ccc(-c2ccc3ncnc(Nc4ccc(OCc5cccc(F)c5)c(Cl)c4)c3c2)o1 [Lapatinib] (partner 2 µM)
// result 0.957

// query // lookup relative viability for O=c1cc(N2CCOCC2)oc2c(-c3cccc4c3sc3ccccc34)cccc12 + CC(=O)c1c(C)c2cnc(Nc3ccc(N4CCNCC4)cn3)nc2n(C2CCCC2)c1=O [Palbociclib] (partner 0.5 µM)
// result 0.61

// query // lookup relative viability for CCN(CC)CCCCNc1ncc2cc(-c3cc(OC)cc(OC)c3)c(NC(=O)NC(C)(C)C)nc2n1 + Cc1nc(Nc2ncc(C(=O)Nc3c(C)cccc3Cl)s2)cc(N2CCN(CCO)CC2)n1 [Dasatinib] (partner 0.075 µM)
// result 0.361

###

# Tested on: NCI-H1915
# testName: relative viability (nuclei count vs DMSO), 5 days (fraction); higher = more cells survive
# experimentalParameters: first compound 0.6325 µM
# relative viability per entry
Write no unit; give the number alone.

Guide cases for relative viability, answers given:
compound | measuredNumber
COCC1(CO)C(=O)C2CCN1CC2 (stereo unspecified) [PRIMA-1MET] + CS(=O)(=O)CCNCc1ccc(-c2ccc3ncnc(Nc4ccc(OCc5cccc(F)c5)c(Cl)c4)c3c2)o1 [Lapatinib] (partner 2 µM) | 0.845
COCC1(CO)C(=O)C2CCN1CC2 (stereo unspecified) [PRIMA-1MET] + COc1cc2c(Oc3ccc(NC(=O)C4(C(=O)Nc5ccc(F)cc5)CC4)cc3F)ccnc2cc1OCCCN1CCOCC1 [Foretinib] (partner 0.25 µM) | 0.958
COCC1(CO)C(=O)C2CCN1CC2 (stereo unspecified) [PRIMA-1MET] + NC(=O)Nc1cc(-c2cccc(F)c2)sc1C(=O)N[C@H]1CCCNC1 [AZD7762] (partner 0.2 µM) | 0.507
COCC1(CO)C(=O)C2CCN1CC2 (stereo unspecified) [PRIMA-1MET] + COc1cccc2cc(-c3nc([C@H]4CC[C@H](C(=O)O)CC4)n4ncnc(N)c34)[nH]c12 [OSI-027] (partner 0.5 µM) | 0.582
COCC1(CO)C(=O)C2CCN1CC2 (stereo unspecified) [PRIMA-1MET] + O=C(CCCCCCC(=O)Nc1ccccc1)NO [Vorinostat] (partner 1 µM) | 0.378

Continue with the compound presented below.
// query // lookup relative viability for COCC1(CO)C(=O)C2CCN1CC2 (stereo unspecified) [PRIMA-1MET] + CC(C)C[C@H](NC(=O)[C@H](Cc1ccccc1)NC(=O)c1cnccn1)B(O)O [Bortezomib] (partner 0.002 µM)
// result 0.695

###

# System: NCI-H2342
# testName: relative viability (nuclei count vs DMSO), 5 days (fraction); higher = more cells survive
# experimentalParameters: first compound 0.01 µM
measuredQuantity: relative viability
Write no unit; give the number alone.

compound | measuredQuantity | measuredNumber
CCN(CC)CCCCNc1ncc2cc(-c3cc(OC)cc(OC)c3)c(NC(=O)NC(C)(C)C)nc2n1 + Nc1nc2[nH]cc(CCc3ccc(C(=O)N[C@@H](CCC(=O)O)C(=O)O)cc3)c2c(=O)[nH]1 [Pemetrexed] (partner 0.2 µM) | relative viability | 0.762
CCN(CC)CCCCNc1ncc2cc(-c3cc(OC)cc(OC)c3)c(NC(=O)NC(C)(C)C)nc2n1 + CC(=O)c1c(C)c2cnc(Nc3ccc(N4CCNCC4)cn3)nc2n(C2CCCC2)c1=O [Palbociclib] (partner 0.5 µM) | relative viability | 0.514

// query // lookup relative viability for CCN(CC)CCCCNc1ncc2cc(-c3cc(OC)cc(OC)c3)c(NC(=O)NC(C)(C)C)nc2n1 + Cc1cc(Nc2cc(N3CCN(C)CC3)nc(Sc3ccc(NC(=O)C4CC4)cc3)n2)n[nH]1 [Tozasertib] (partner 0.1 µM)
// result 0.448

###

# Test system: HCC-15
# testName: relative viability (nuclei count vs DMSO), 5 days (fraction); higher = more cells survive
# experimentalParameters: first compound 0.253 µM
measuredQuantity: relative viability

// query // lookup relative viability for O=c1cc(-c2cccc3c2Sc2ccccc2S3)oc(N2CCOCC2)c1 + Nc1ncn([C@H]2C[C@H](O)[C@@H](CO)O2)c(=O)n1 [Decitabine] (partner 2 µM)
// result 0.807

// query // lookup relative viability for O=c1cc(-c2cccc3c2Sc2ccccc2S3)oc(N2CCOCC2)c1 + CS(=O)(=O)CCNCc1ccc(-c2ccc3ncnc(Nc4ccc(OCc5cccc(F)c5)c(Cl)c4)c3c2)o1 [Lapatinib] (partner 2 µM)
// result 1.02

// query // lookup relative viability for O=c1cc(-c2cccc3c2Sc2ccccc2S3)oc(N2CCOCC2)c1 + CS(=O)(=O)N1CCN(Cc2cc3nc(-c4cccc5[nH]ncc45)nc(N4CCOCC4)c3s2)CC1 [Pictilisib] (partner 1 µM)
// result 0.858

// query // lookup relative viability for O=c1cc(-c2cccc3c2Sc2ccccc2S3)oc(N2CCOCC2)c1 + C[C@@H](Oc1cc(-c2cnn(C3CCNCC3)c2)cnc1N)c1c(Cl)ccc(F)c1Cl [Crizotinib] (partner 1 µM)
// result 0.934

// query // lookup relative viability for COc1nc(C)cnc1NS(=O)(=O)c1cccnc1-c1ccc(-c2nnco2)cc1 [Zibotentan] + Cc1nc(NC(=O)N2CCC[C@H]2C(N)=O)sc1-c1ccnc(C(C)(C)C(F)(F)F)c1 [Alpelisib] (partner 2 µM)
// result 0.884

// query // lookup relative viability for COc1nc(C)cnc1NS(=O)(=O)c1cccnc1-c1ccc(-c2nnco2)cc1 [Zibotentan] + O=C(CCCCCCC(=O)Nc1ccccc1)NO [Vorinostat] (partner 1 µM)
// result 0.863

###

# Test system: NCI-H2009
# testName: relative viability (nuclei count vs DMSO), 5 days (fraction); higher = more cells survive
# experimentalParameters: first compound 0.3162 µM
measuredQuantity: relative viability

Guide cases for relative viability, answers given:
compound | result
O=c1cc(N2CCOCC2)oc2c(-c3cccc4c3sc3ccccc34)cccc12 + CC1(C)CCC(c2ccc(Cl)cc2)=C(CN2CCN(c3ccc(C(=O)NS(=O)(=O)c4ccc(N[C@H](CCN5CCOCC5)CSc5ccccc5)c(S(=O)(=O)C(F)(F)F)c4)cc3)CC2)C1 [Navitoclax] (partner 0.5 µM) | 1.19
CCN(CC)CCCCNc1ncc2cc(-c3cc(OC)cc(OC)c3)c(NC(=O)NC(C)(C)C)nc2n1 + Cc1nc(Nc2ncc(C(=O)Nc3c(C)cccc3Cl)s2)cc(N2CCN(CCO)CC2)n1 [Dasatinib] (partner 0.075 µM) | 0.292
O=c1cc(N2CCOCC2)oc2c(-c3cccc4c3sc3ccccc34)cccc12 + CC(C)C[C@H](NC(=O)[C@H](Cc1ccccc1)NC(=O)c1cnccn1)B(O)O [Bortezomib] (partner 0.002 µM) | 0.967

// query // lookup relative viability for O=c1cc(N2CCOCC2)oc2c(-c3cccc4c3sc3ccccc34)cccc12 + CS(=O)(=O)N1CCN(Cc2cc3nc(-c4cccc5[nH]ncc45)nc(N4CCOCC4)c3s2)CC1 [Pictilisib] (partner 1 µM)
// result 0.796

###

# System: NCI-H650
# testName: relative viability (nuclei count vs DMSO), 5 days (fraction); higher = more cells survive
# experimentalParameters: first compound 0.1 µM
measuredQuantity: relative viability

// query // lookup relative viability for CCN(CC)CCCCNc1ncc2cc(-c3cc(OC)cc(OC)c3)c(NC(=O)NC(C)(C)C)nc2n1 + CC(=O)Nc1cccc(-n2c(=O)n(C3CC3)c(=O)c3c(Nc4ccc(I)cc4F)n(C)c(=O)c(C)c32)c1 [Trametinib] (partner 0.02 µM)
// result 0.962

// query // lookup relative viability for CCN(CC)CCCCNc1ncc2cc(-c3cc(OC)cc(OC)c3)c(NC(=O)NC(C)(C)C)nc2n1 + CC(=O)c1c(C)c2cnc(Nc3ccc(N4CCNCC4)cn3)nc2n(C2CCCC2)c1=O [Palbociclib] (partner 0.5 µM)
// result 0.331

// query // lookup relative viability for CCN(CC)CCCCNc1ncc2cc(-c3cc(OC)cc(OC)c3)c(NC(=O)NC(C)(C)C)nc2n1 + NC(=O)Nc1cc(-c2cccc(F)c2)sc1C(=O)N[C@H]1CCCNC1 [AZD7762] (partner 0.2 µM)
// result 0.97

// query // lookup relative viability for CCN(CC)CCCCNc1ncc2cc(-c3cc(OC)cc(OC)c3)c(NC(=O)NC(C)(C)C)nc2n1 + Nc1nc2[nH]cc(CCc3ccc(C(=O)N[C@@H](CCC(=O)O)C(=O)O)cc3)c2c(=O)[nH]1 [Pemetrexed] (partner 0.2 µM)
// result 1.04

The measurements presented in this section are drawn from the supplement of paper PMC10307832.
